test system: Aspergillus niger; test: Antifungal activity against Aspergillus niger assessed as growth inhibition after 96 hr by agar dilution method; type: functional
The source made the active and inactive calls. The calls are words filed in the database; no cut-off is given here.

>  <compound>
Clc1ccc(OCc2nc3ccccc3nc2COc2ccc(Cl)c3cccnc23)c2ncccc12

>  <MIC>
1000 µg/mL

$$$$
>  <compound>
c1ccc2cc(COc3cccc4cccnc34)c(COc3cccc4cccnc34)cc2c1

>  <MIC>
inactive

$$$$
>  <compound>
Clc1ccc(OCc2ccc(COc3ccc(Cl)c4cccnc34)cc2)c2ncccc12

>  <MIC>
inactive

$$$$
>  <compound>
Cc1ccc2cccc(OCc3ccccc3COc3cccc4ccc(C)nc34)c2n1

>  <MIC>
1000 µg/mL

$$$$
>  <compound>
Clc1ccc(OCc2ccccc2COc2ccc(Cl)c3cccnc23)c2ncccc12

>  <MIC>
1000 µg/mL

$$$$
>  <compound>
OC(Cn1cncn1)(Cn1cncn1)c1ccc(F)cc1F [FLUCONAZOLE]

>  <MIC>
10 µg/mL

$$$$
>  <compound>
Cc1ccc2cccc(OCc3cc4ccccc4cc3COc3cccc4ccc(C)nc34)c2n1

>  <MIC>
inactive

$$$$
>  <compound>
Cc1ccc2cccc(OCc3ccc(COc4cccc5ccc(C)nc45)cc3)c2n1

>  <MIC>
inactive

$$$$
>  <compound>
c1cc(COc2cccc3cccnc23)cc(COc2cccc3cccnc23)c1

>  <MIC>
inactive

$$$$
>  <compound>
Cc1ccc2cccc(OCc3nc4ccccc4nc3COc3cccc4ccc(C)nc34)c2n1

>  <MIC>
inactive

$$$$
>  <compound>
c1ccc(COc2cccc3cccnc23)c(COc2cccc3cccnc23)c1

>  <MIC>
inactive

$$$$
>  <compound>
c1cnc2c(OCc3ccc(COc4cccc5cccnc45)cc3)cccc2c1

>  <MIC>
inactive

$$$$
>  <compound>
Clc1ccc(OCc2cc3ccccc3cc2COc2ccc(Cl)c3cccnc23)c2ncccc12

>  <MIC>
inactive

$$$$
>  <compound>
c1cnc2c(OCc3nc4ccccc4nc3COc3cccc4cccnc34)cccc2c1

>  <MIC>
inactive

$$$$
>  <compound>
Cc1ccc2cccc(OCc3cccc(COc4cccc5ccc(C)nc45)c3)c2n1

>  <MIC>
inactive

$$$$
>  <compound>
Clc1ccc(OCc2cccc(COc3ccc(Cl)c4cccnc34)c2)c2ncccc12

>  <MIC>
1000 µg/mL

$$$$

----------
system: Bacillus pumilus; test: Antibacterial activity against Bacillus pumilus 11778 assessed as growth inhibition at MIC after 24 hr by agar dilution method; assay type: functional
Activity calls are given as the source filed them. The rule behind the calls is not given here.

>  <smilesStr>
CC1(C)S[C@@H]2[C@H](NC(=O)[C@H](N)c3ccc(O)cc3)C(=O)N2[C@H]1C(=O)O

>  <targetUnderTest>
Bacillus pumilus

>  <diameter of the inhibition zone (DIZ)>
10 mm

$$$$
>  <smilesStr>
Clc1ccc(OCc2nc3ccccc3nc2COc2ccc(Cl)c3cccnc23)c2ncccc12

>  <targetUnderTest>
Bacillus pumilus

>  <diameter of the inhibition zone (DIZ)>
8 mm

$$$$
>  <smilesStr>
c1ccc2cc(COc3cccc4cccnc34)c(COc3cccc4cccnc34)cc2c1

>  <targetUnderTest>
Bacillus pumilus

>  <diameter of the inhibition zone (DIZ)>
9 mm

$$$$
>  <smilesStr>
Clc1ccc(OCc2cccc(COc3ccc(Cl)c4cccnc34)c2)c2ncccc12

>  <targetUnderTest>
Bacillus pumilus

>  <diameter of the inhibition zone (DIZ)>
inactive

$$$$
>  <smilesStr>
c1ccc(COc2cccc3cccnc23)c(COc2cccc3cccnc23)c1

>  <targetUnderTest>
Bacillus pumilus

>  <diameter of the inhibition zone (DIZ)>
inactive

$$$$
>  <smilesStr>
Cc1ccc2cccc(OCc3ccccc3COc3cccc4ccc(C)nc34)c2n1

>  <targetUnderTest>
Bacillus pumilus

>  <diameter of the inhibition zone (DIZ)>
7 mm

$$$$
>  <smilesStr>
Cc1ccc2cccc(OCc3cc4ccccc4cc3COc3cccc4ccc(C)nc34)c2n1

>  <targetUnderTest>
Bacillus pumilus

>  <diameter of the inhibition zone (DIZ)>
6 mm

$$$$
>  <smilesStr>
Clc1ccc(OCc2cc3ccccc3cc2COc2ccc(Cl)c3cccnc23)c2ncccc12

>  <targetUnderTest>
Bacillus pumilus

>  <diameter of the inhibition zone (DIZ)>
8 mm

$$$$
>  <smilesStr>
Clc1ccc(OCc2ccccc2COc2ccc(Cl)c3cccnc23)c2ncccc12

>  <targetUnderTest>
Bacillus pumilus

>  <diameter of the inhibition zone (DIZ)>
6 mm

$$$$

----------
test system: Candida albicans; assay: Antifungal activity against Candida albicans assessed as growth inhibition at MIC after 96 hr by agar dilution method; format: functional
Active and inactive are the calls of the source. The rule behind the calls is not given here.
endpoint: diameter of the inhibition zone (DIZ)

>  <smilesStr>
Clc1ccc(OCc2cccc(COc3ccc(Cl)c4cccnc34)c2)c2ncccc12

>  <result>
inactive

$$$$
>  <smilesStr>
Clc1ccc(OCc2nc3ccccc3nc2COc2ccc(Cl)c3cccnc23)c2ncccc12

>  <result>
7.8 mm

$$$$
>  <smilesStr>
Cc1ccc2cccc(OCc3cccc(COc4cccc5ccc(C)nc45)c3)c2n1

>  <result>
inactive

$$$$
>  <smilesStr>
c1ccc(COc2cccc3cccnc23)c(COc2cccc3cccnc23)c1

>  <result>
inactive

$$$$

----------
molecules and their reported MIC
system: Pseudomonas aeruginosa; assay: Antibacterial activity against Pseudomonas aeruginosa 71 assessed as growth inhibition after 24 hr by agar dilution method; format: functional; conditions: Pseudomonas aeruginosa, 71, 24 h
endpoint: MIC

>  <smilesStr>
Cc1ccc2cccc(OCc3ccccc3COc3cccc4ccc(C)nc34)c2n1

>  <result>
> 500 µg/mL

$$$$
>  <smilesStr>
Clc1ccc(OCc2cccc(COc3ccc(Cl)c4cccnc34)c2)c2ncccc12

>  <result>
256 µg/mL

$$$$
>  <smilesStr>
Clc1ccc(OCc2cc3ccccc3cc2COc2ccc(Cl)c3cccnc23)c2ncccc12

>  <result>
> 500 µg/mL

$$$$
